B1: glmS ribozyme (parent)
chain: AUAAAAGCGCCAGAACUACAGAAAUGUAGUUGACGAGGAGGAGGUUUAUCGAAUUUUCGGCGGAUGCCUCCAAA

Variants of: B1
Experiment: self-cleavage kobs at 160 uM GlcN6P; higher = faster cleavage; RNA array
Conditions: with glucosamine-6-phosphate
Variants at the floor of the assay were thinned out.
EXPERIMENTAL_ENDPOINT: self-cleavage kobs at 160 uM GlcN6P

Study these solved cases before continuing.
C16U U47A A53G U54A : 0.00109 s⁻¹
C16U C67A : 0.0005 s⁻¹
U45G G63U : < 1e-05 s⁻¹
G13C G29U G32A U54G U65C C68G U69G : 0.000198 s⁻¹
A42C U69A : 5.29e-05 s⁻¹

# return recorded self-cleavage kobs at 160 uM GlcN6P for input A33U C61G C70U < 1e-05 s⁻¹

// data source = the supplement of paper PMC7125110
